target.entity: Steryl-sulfatase (Homo sapiens)
Sequence (P08842 whole entry): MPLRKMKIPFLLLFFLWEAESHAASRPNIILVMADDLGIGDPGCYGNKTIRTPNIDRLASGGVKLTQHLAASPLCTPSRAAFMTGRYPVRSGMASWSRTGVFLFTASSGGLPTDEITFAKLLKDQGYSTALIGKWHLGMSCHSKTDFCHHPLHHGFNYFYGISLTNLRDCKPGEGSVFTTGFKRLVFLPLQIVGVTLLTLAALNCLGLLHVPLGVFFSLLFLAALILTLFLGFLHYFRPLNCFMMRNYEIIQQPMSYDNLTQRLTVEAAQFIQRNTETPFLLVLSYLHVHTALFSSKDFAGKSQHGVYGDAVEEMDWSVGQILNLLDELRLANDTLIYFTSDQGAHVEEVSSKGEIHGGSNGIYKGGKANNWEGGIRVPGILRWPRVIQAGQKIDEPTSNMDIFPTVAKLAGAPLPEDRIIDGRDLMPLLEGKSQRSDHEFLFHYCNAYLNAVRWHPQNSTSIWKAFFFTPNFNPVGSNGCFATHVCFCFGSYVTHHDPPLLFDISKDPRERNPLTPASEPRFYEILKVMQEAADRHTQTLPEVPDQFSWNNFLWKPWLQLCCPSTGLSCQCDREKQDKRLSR
pIC50: −log10 of the molar value.
property.name: pIC50

Solved cases below.
[[record]]
molecule = "CCCCCCC(=O)c1ccc(OS(N)(=O)=O)cc1"
property_name = "pIC50"
endpoint_value = 5.30

[[record]]
molecule = "CCCCCCCCC(=O)c1ccc(OS(N)(=O)=O)cc1"
property_name = "pIC50"
endpoint_value = 5.47

[[record]]
molecule = "Cc1cc(=O)oc2cc(OS(N)(=O)=O)ccc12"
property_name = "pIC50"
endpoint_value = 4.92

[[record]]
molecule = "NS(=O)(=O)Oc1ccc(C(=O)/C=C/c2ccccc2)cc1"
property_name = "pIC50"
endpoint_value = 3.58

[[record]]
molecule = "C[C@]12CC[C@@H]3c4ccc(OS(N)(=O)=O)cc4CCC3[C@@H]1CCC2=O (single isomer, unassigned) [EMATE]"
property_name = "pIC50"
endpoint_value = 6.30


(P) NS(=O)(=O)Oc1ccc(C=O)cc1
(Q) NS(=O)(=O)Oc1ccc(C(=O)c2ccccc2)cc1
API: POST /compare with P and Q ; response names the item with higher pIC50. Please indicate the selected item by its label.
Q

---

target.entity: Steryl-sulfatase (Homo sapiens) (UniProt P08842)
assay.info: Relative potency compared to EMATE against Estrone sulfatase
property.name: Potency

Solved cases below.
[[record]]
smiles_str = "CCCCC(=O)c1ccc(OS(N)(=O)=O)cc1"
endpoint_value = 0.0239

[[record]]
smiles_str = "CCCCCCCC(=O)c1ccc(OS(N)(=O)=O)cc1"
endpoint_value = 0.0893

[[record]]
smiles_str = "NS(=O)(=O)Oc1ccc(C(=O)Cc2ccccc2)cc1"
endpoint_value = 0.0152


(A) CCCC(=O)c1ccc(OS(N)(=O)=O)cc1
(B) CCCCCCC(=O)c1ccc(OS(N)(=O)=O)cc1
(C) CCCCCCCCC(=O)c1ccc(OS(N)(=O)=O)cc1
(D) NS(=O)(=O)Oc1ccc(C=O)cc1
Rank items: key Potency, increasing. Give the order by naming the labels one after another as requested.
D, A, B, C
